We begin with pIC50 values for Renin (Homo sapiens), as collected from the published literature.
pIC50: −log10 of the molar value.
// label = condition met if pIC50 is not less than 8, otherwise condition not met

| compound | class.name |
| --- | --- |
| CC(C)C[C@H](NC(=O)C[C@H](O)[C@H](CC1CCCCC1)NC(=O)[C@H](CC(=O)O)NC(=O)C(Cc1cccc2ccccc12)Cc1cccc2ccccc12)C(=O)NCc1ccccc1 | condition not met |
| CC(C)C(CC(O)C(CC1CCCCC1)NC(=O)C(Cc1c[nH]cn1)NC(=O)C(Cc1ccccc1)NC(=O)C1CCCN1C(=O)OC(C)(C)C)C(O)CNCCc1ccccc1 (single isomer, unassigned) | condition met |
| CC(C)C[C@H](O)[C@H](O)[C@H](CC1CCCCC1)NC(=O)[C@H](Cc1cscn1)NC(=O)[C@H](Cc1ccccc1)Cn1ccnc1 | condition met |
| COC(=O)CC(Cc1cccc2ccccc12)C(=O)N[C@@H](Cc1c[nH]cn1)C(=O)N[C@@H](CC(C)C)C(O)C(=O)OC(C)C (mixture of isomers) | condition not met |
| CC(C)C[C@H](O)[C@H](O)[C@H](CC1CCCCC1)NC(=O)[C@H](Cc1c[nH]cn1)NC(=O)c1cc2ccccc2n1C | condition not met |
| CC(C)C[C@H](O)[C@H](O)[C@H](CC1CCCCC1)NC(=O)[C@H](Cc1c[nH]cn1)NC(=O)c1cc2ccccc2[nH]1 | condition met |
| C[C@H](NC(=O)[C@H](Cc1ccccc1)NC(=O)OC(C)(C)C)C(=O)N[C@@H](CC1CCCCC1)[C@@H](O)CBr | condition not met |
| CC(C)C[C@H](O)[C@H](O)[C@H](CC1CCCCC1)NC(=O)C(Cn1cccn1)N(C)C(=O)[C@@H](CC(=O)N(C)CCc1ccccn1)Cc1ccccc1 (some centres unmarked) | condition met |
